Recorded values, source ChEMBL document CHEMBL1201862.

System: LOX IMVI
Experiment: NCI tumour cell line growth inhibition, 48 h
Calls of active or inactive are those of the source. Rule as the data show it: active = GI50 up to about 1.1 µM and inactive = higher.
Please state which outcome applies, choosing from label 1 (active), label 0 (inactive)

Test call for this compound, please: COC(=O)c1ccc(O)c2nc3c(C=O)c(O)cc(O)c3nc12 [LOMOFUNGIN]
label 1

Test call for this compound, please: COc1ccc(-c2nc3cc(C(F)(F)F)ccc3n2CC2CCCN3CCCCC23)cc1 (stereo not given)
label 0

Test call for this compound, please: CCCCOc1c(C(=O)O)cc(Br)cc1C(=O)O
label 0

Test call for this compound, please: COc1cc(C2c3cc4c(cc3[C@@H](Nc3ccc(N)cc3)C3COC(=O)[C@H]23)OCO4)cc(OC)c1O (stereo not given in full)
label 1

Test call for this compound, please: O=[N+]([O-])c1ccc(NN=C2CN3CCN(C2)c2ccccc23)c([N+](=O)[O-])c1
label 0

* * *

Tested on: SR
Assay: NCI tumour cell line growth inhibition, 48 h
Activity calls are given as the source filed them. No stated cut-off is given here; in the data, active = GI50 up to about 1.1 µM and inactive = higher.
Please state which outcome applies, choosing from active, inactive

Test call for this compound, please: CCCCCCc1cc2cc(C(=O)Nc3cccc(F)c3)c(=N)oc2cc1O
inactive

Test call for this compound, please: Clc1ccccc1C(n1cc(Br)cn1)n1cc(Br)cn1
inactive

Test call for this compound, please: O=[N+]([O-])/C(C(Cl)=C(Cl)Cl)=C(/Br)SCc1ccccc1
active

Test call for this compound, please: CC(C)N(C(=O)c1ccc(NCc2cc(O)ccc2O)cc1)C(C)C
inactive

Test call for this compound, please: Cc1nc2ccc(S(=O)(=O)O)cc2c(=O)n1-c1ccc(C(=O)NN2C(=O)C(Cl)C2c2cccs2)cc1 (stereo not given)
inactive

* * *

Assignment: determine reported GI50 for the given molecules.
System: NCI-H23
Experiment: NCI tumour cell line growth inhibition, 48 h
The source made the active and inactive calls. Cut-off read from the data, not from the text of the source: active = GI50 up to about 1.1 µM and inactive = higher.

# get_value(readout= GI50, system= NCI-H23) for COC(=O)c1cc2c(nc1C)-c1ccccc1OS2(=O)=O
> 100 µM (inactive)

# get_value(readout= GI50, system= NCI-H23) for CC(=O)OC1CC[C@@]2(C)C(CC[C@]3(C)C2CC=C2[C@@H]4CC(C)(C)CCC4(C)CCC23C)[C@@]1(C)C(=O)O (some centres undefined)
11.4 µM (inactive)

# get_value(readout= GI50, system= NCI-H23) for CCNc1nnc(-c2ccccc2Nc2ccccc2-c2nnc(NCC)s2)s1
14 µM (inactive)

# get_value(readout= GI50, system= NCI-H23) for C/C=C(\C)C(=O)OC1CC(OC(C)=O)C2(C(=O)OC)COC3C2C1(C)C1C2(C(=O)OC)OCC1(C3O)C1(O)C3CC(C4(O)C=COC4O3)C1(C)O2 (centres undefined)
> 100 µM (inactive)

# get_value(readout= GI50, system= NCI-H23) for CC(=O)O[C@H]1C#C/C=C\C#CC[C@@H]2C(=O)N[C@@H]12
11.2 µM (inactive)

# get_value(readout= GI50, system= NCI-H23) for Cc1cc(C(=C2C=CC(=[N+](C)C)C=C2)c2ccc([N+](C)(C)C)cc2)ccc1N(C)C
10.1 µM (inactive)

# get_value(readout= GI50, system= NCI-H23) for O=C(CCc1ccccc1)n1cccc1CO
> 100 µM (inactive)

# get_value(readout= GI50, system= NCI-H23) for CCOC(=O)C1=C(C)N(CC(C)C)C2(O)C(OC)CC(=O)C3C(=O)N(c4ccccc4)C(=O)C132 (centres undefined)
35 µM (inactive)

# get_value(readout= GI50, system= NCI-H23) for CCOC(=O)C1=C(C)N(c2ccccc2)C2=C(C(=O)N(c3ccccc3)C2c2ccccc2)C1c1ccccc1 (centres undefined)
> 100 µM (inactive)
